assaySystem: SMO (Mus musculus, UniProt P56726)
Construct: endogenous in cells; host or cells: C3H10T1/2 (ATCC #CCL-226)
Sequence (P56726 33-793): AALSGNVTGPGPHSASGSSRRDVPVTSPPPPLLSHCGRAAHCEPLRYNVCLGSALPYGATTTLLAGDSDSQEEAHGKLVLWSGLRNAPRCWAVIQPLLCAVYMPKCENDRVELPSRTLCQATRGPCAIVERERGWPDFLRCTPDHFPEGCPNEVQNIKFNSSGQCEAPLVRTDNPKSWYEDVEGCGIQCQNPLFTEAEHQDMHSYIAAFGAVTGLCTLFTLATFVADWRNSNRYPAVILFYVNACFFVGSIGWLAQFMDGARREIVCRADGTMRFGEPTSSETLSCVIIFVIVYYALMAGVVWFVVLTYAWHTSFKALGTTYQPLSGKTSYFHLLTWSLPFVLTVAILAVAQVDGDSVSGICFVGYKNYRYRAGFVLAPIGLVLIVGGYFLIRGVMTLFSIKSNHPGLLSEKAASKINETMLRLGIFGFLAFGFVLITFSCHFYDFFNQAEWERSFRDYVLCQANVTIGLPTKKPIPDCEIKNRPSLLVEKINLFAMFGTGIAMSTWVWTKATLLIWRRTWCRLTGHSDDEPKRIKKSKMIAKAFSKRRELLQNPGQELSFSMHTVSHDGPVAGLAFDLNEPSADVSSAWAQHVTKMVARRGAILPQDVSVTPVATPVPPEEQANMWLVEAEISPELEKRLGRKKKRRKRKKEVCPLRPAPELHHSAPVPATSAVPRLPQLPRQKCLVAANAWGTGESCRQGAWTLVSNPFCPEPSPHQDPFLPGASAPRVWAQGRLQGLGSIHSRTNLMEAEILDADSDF
experimentSummary: Smoothened (SMO)/Sonic Hedgehog (SHh) Transient Transcriptional Activation Assay (Gli-luciferase reporter in C3H10T1/2 cells)
Assay type: cell-based, murine
measurementContext: C3H 10T1/2, 2 μM test compound, SHh 250 ng/ml, 20 hrs, read-out: SMO CELL % INHIBITION @ 2 μM
Counter-ions that a name gives are not always drawn.
attributeMeasured: inhibition at 2 µM (%)
Kindly answer with a numeric value in %, unit omitted.

Sample records with inhibition at 2 µM:
Given the molecule N#Cc1ccc2nc([C@H]3CCC[C@@H](NC(=O)c4ccc5c(c4)OCCO5)C3)[nH]c2c1 [Example 172, HCl] , write its reported inhibition at 2 µM.
90

Given the molecule O=C(NC12CCCC(c3nc4cc(C(F)(F)F)ccc4[nH]3)(C1)C2)c1ccc(C(=O)c2ccccc2)cc1 [Example 275] , write its reported inhibition at 2 µM.
89

Given the molecule Cc1cc2c(cc1C(=O)N[C@@H]1CCC[C@H](c3nc4ccccc4[nH]3)C1)OCCO2 [Example 307] , write its reported inhibition at 2 µM.
90.5

// next entry
Given the molecule Cn1c([C@H]2CCC[C@@H](NC(=O)c3ccc4c(c3)CNCC4)C2)nc2ccccc21 [Example 310, HCl] , write its reported inhibition at 2 µM.
91.6

Source of measurements: patent US20100029615A1
